- protocolNotes: Pharmacokinetic parameters of Compound 35, intravenous, mice
- Type: in vivo
- assayContext: mouse, 1 mg/kg, plasma
Non-standard residues stand in square brackets, D forms with d. Residues, ends and D or L forms follow the SMILES beside them. Ala(4-thiazolyl) = N[C@@H](Cc1cscn1)C(=O)O; Phe(4-Cl) = N[C@@H](Cc1ccc(Cl)cc1)C(=O)O; Phe(4-F) = N[C@@H](Cc1ccc(F)cc1)C(=O)O; NMeF = CN[C@@H](Cc1ccccc1)C(=O)O; Tle = CC(C)(C)[C@H](N)C(=O)O; hSer = N[C@@H](CCO)C(=O)O; NMeA = CN[C@@H](C)C(=O)O; dNMeA = CN[C@H](C)C(=O)O; Nme = COCCNCC(=O)O
measuredEndpoint: Cmax (ng/mL)
Express your answer in ng/mL, writing the number without its unit.

q: Can you look up the measured Cmax of COCC[C@@H]1NC(=O)[C@H]2CCCN2C(=O)[C@H](Cc2ccccc2)N(C)C(=O)[C@H](Cc2ccc(Cl)cc2)NC(=O)[C@H](C(C)(C)C)NC(=O)[C@H](Cc2ccc(F)cc2)NC(=O)CN(CCOC)C(=O)[C@@H](C)N(C)C(=O)[C@H](Cc2cscn2)NC(=O)[C@H](C)N(C)C1=O [Compound 35] (cyclo([Ala(4-thiazolyl)][dNMeA][Nme][Phe(4-F)][Tle][Phe(4-Cl)][NMeF][dP][hSer](Me)[NMeA])) for me?
a: 3570

====

Each entry below carries its reported IC50.
- systemName: Human MDM2 (HDM2) 1-116 (Homo sapiens, UniProt Q00987)
- Construct: Human MDM2 (HDM2) 1-116
- Sequence (Q00987 1-116): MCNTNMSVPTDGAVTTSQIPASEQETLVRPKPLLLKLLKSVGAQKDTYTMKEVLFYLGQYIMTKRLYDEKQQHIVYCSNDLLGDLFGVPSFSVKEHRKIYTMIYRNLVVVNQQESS
- protocolNotes: Fluorescence polarization assay, MDM2/p53 (Table 3)
- Assay type: binding
Non-standard residues stand in square brackets, D forms with d. Residues, ends and D or L forms follow the SMILES beside them. Phe(4-Cl) = N[C@@H](Cc1ccc(Cl)cc1)C(=O)O; Phe(4-F) = N[C@@H](Cc1ccc(F)cc1)C(=O)O; 3Pal = N[C@@H](Cc1cccnc1)C(=O)O; dNMeV = CN[C@@H](C(=O)O)C(C)C; Tle = CC(C)(C)[C@H](N)C(=O)O; dPip = O=C(O)[C@H]1CCCCN1; NMeA = CN[C@@H](C)C(=O)O; Nme = COCCNCC(=O)O

The cases that follow already have their IC50 on record.
compound: C[C@H]1C(=O)N[C@@H](Cc2ccc(Cl)cc2)C(=O)N2CCCC[C@@H]2C(=O)N2CCC[C@H]2C(=O)N[C@@H](Cc2ccccc2)C(=O)N[C@@H](C(C)(C)C)C(=O)N[C@@H](Cc2cccnc2)C(=O)N2CCCC[C@@H]2C(=O)N(C)[C@@H](C)C(=O)N[C@@H](Cc2ccc(F)cc2)C(=O)N1C [Compound 28] (cyclo([3Pal][dPip][NMeA][Phe(4-F)][NMeA][Phe(4-Cl)][dPip]PF[Tle]))
IC50: 1 to 2.5 µM
//
compound: COCCN1CC(=O)N(C)[C@@H](C)C(=O)N[C@@H](Cc2ccc(F)cc2)C(=O)N(C)[C@@H](C)C(=O)N[C@@H](Cc2ccc(Cl)cc2)C(=O)N(C)[C@H](C(C)C)C(=O)N2CCC[C@H]2C(=O)N[C@@H](Cc2ccccc2)C(=O)N[C@@H](C(C)(C)C)C(=O)N[C@@H](Cc2ccc(O)cc2)C1=O [Compound 14] (cyclo(F[Tle]Y[Nme][NMeA][Phe(4-F)][NMeA][Phe(4-Cl)][dNMeV]P))
IC50: 1 to 2.5 µM

Consider the record given below.
q: Can you look up the measured IC50 of COCCN1CC(=O)N(C)[C@@H](C)C(=O)N[C@@H](Cc2ccc(F)cc2)C(=O)N(C)[C@@H](C)C(=O)N[C@@H](Cc2ccc(Cl)cc2)C(=O)N2CCCC[C@@H]2C(=O)N2CCC[C@H]2C(=O)N[C@@H](Cc2ccccc2)C(=O)N[C@@H](C(C)(C)C)C(=O)N[C@@H](Cc2ccc(O)cc2)C1=O [Compound 30] (cyclo(F[Tle]Y[Nme][NMeA][Phe(4-F)][NMeA][Phe(4-Cl)][dPip]P)) for me?
a: 2.5 to 5 µM

Sourced from patent US20220411471A1
